# systemUnderTest: E3 ubiquitin-protein ligase XIAP (Homo sapiens)
# assayMethodText: XIAP binders, primary screen, biophysical, small-molecule microarray, fluorescence 635 nm (AID 1181);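 also: score merges 667 nm emission and signal to noise over triplicate slides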
# appliedConditions: small-molecule microarray binding, higher = more signal
parameterMeasured: composite z-score
Answer as a number with no unit attached.

compound	composite z-score
CC(c1ccccc1)C(O)C1C=CC2C(=O)N(c3ccccc3)C(=O)C2N1Nc1ccc([N+](=O)[O-])cc1 (configuration not stated)	-0.334
COC(=O)c1ccc([C@H](NC(=O)c2ccco2)[C@]2(C)C[C@H]2C2CCCCC2)cc1	-0.0668
O=C1c2ccccc2[C@](Cc2ccccc2I)(C(=O)NCC(F)(F)F)[C@H](c2ccc(CO)cc2)N1C1CCCCC1	0.129
C[C@H]1NC(=O)[C@@]23C(=O)N[C@@H](Cc4ccccc4)C2[C@H](C)[C@@]2(C)O[C@H]2C3/C=C/C/C=C\CNC(=O)[C@H](Cc2ccccc2)NC1=O (some centres not stated)	0.104
CCOC(=O)c1ccc(NC(=O)O[C@H]2[C@H](OC(=O)Nc3ccc4c(c3)OCO4)[C@H](OC(=O)Nc3ccc4c(c3)OCO4)[C@@H](OC)O[C@@H]2CO)cc1	0.32
CCCCCCCCCCC(O)C1C=CC2C(=O)N(C)C(=O)C2N1NC(=O)OC(C)(C)C (configuration not stated)	0.109

Req: Note composite z-score for the compound shown: COc1ccc([Si](C)(C)[C@@H]2[C@@H](CC(=O)N3Cc4ccccc4C[C@H]3CO)O[C@]3(C(=O)N(C)c4ccccc43)[C@H]2C)cc1
Resp: -0.0095

----------
# assayMethodText: basal S. cerevisiae growth modulation, no modifier, primary screen, OD600, strain BY4716, 24 h, basal condition (AID 1173)
# appliedConditions: OD600, 24 h, higher = more signal, called active from +8 up or from −8 down
z-score below 0.09 gives Condition not met; z-score at or above it gives Condition met.

Record excerpt, results attached:
compound	group
CN1C(=O)C2C=CC(C(O)C#Cc3ccccc3)N(Nc3ccccc3)C2C1=O (configuration not stated)	Condition not met
COc1ccc([Si](C)(C)[C@H]2[C@H](CC(=O)N(CCO)Cc3ccccc3)O[C@@]3(C(=O)N(Cc4cccc(N5CCOC5=O)c4)c4ccccc43)[C@@H]2C)cc1	Condition met
O=C1O[C@H](c2ccccc2)[C@H](c2ccccc2)N2[C@H]1[C@@H](C(=O)Nc1nc3ccccc3s1)[C@]1(C(=O)Nc3ccc(C#CC4(O)CCCCCC4)cc31)[C@H]2c1ccccc1OCCO	Condition met
C=C[C@@H](OC)[C@H](OC(=O)Nc1ccc(SC)cc1)c1ccc(O)c(F)c1	Condition not met
O=C1OCC=C[C@H]2OC34C=CCN(Cn5nnc6ccccc65)C(=O)[C@H]3N(CCCO)C(=O)[C@@H]4[C@@H]12 (some centres not stated)	Condition not met

Req: I'd appreciate it if you could say whether O=C1NC(=O)C2C1C=CC(C(O)c1cccc3ccccc13)N2Nc1ccc(Cl)cc1Cl (configuration not stated) has z-score at least equal to 0.09.
Resp: Condition not met

Req: I'd appreciate it if you could say whether CC(C)(C)N1CC=CC23O[C@@H]4C=CCCOC(=O)C4[C@H]2C(=O)N(CCO)[C@@H]3C1=O (some centres not stated) has z-score at least equal to 0.09.
Resp: Condition met

----------
# Test system: Plasmodium falciparum Sir2 (PF13_0152, Sir2A)
# assayMethodText: pfSir2 binders on small-molecule microarrays, primary screen, biochemical, small-molecule microarray, 635 nm fluorescence (AID 1098);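 also: score merges spot fluorescence intensity with its signal-to-noise ratio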
# appliedConditions: small-molecule microarray binding, fluorescence 635 nm; higher = more signal
parameterMeasured: composite z-score
Answer as a number with no unit attached.

molecule	quantitativeResult
C=CCC(OC(C)=O)[C@@H]1[C@@H](N(Cc2cc3ccccc3o2)C(=O)Cc2ccc(F)cc2)c2cc(OCCCO)ccc2N1C(=O)c1ccc2ccccc2c1 (stereo partly specified)	-0.365
[N-]=[N+]=Nc1ccccc1[C@@H]1OC(c2ccc(OCCCO)cc2)=N[C@]1(Cc1ccccc1)C(=O)NCC(O)CO (stereo partly specified)	1.08

Proceeding to the next molecule to report its composite z-score.
Req: Note composite z-score for the molecule shown: O=C1O[C@@H](c2ccccc2)[C@@H](c2ccccc2)N2[C@@H](c3ccccc3OCCO)[C@]3(C(=O)Nc4ccc(C#CCCO)cc43)[C@@H](C(=O)N3CCCCCCC3)[C@H]12
Resp: 2.19

----------
# systemUnderTest: Epidermal growth factor receptor (Homo sapiens)
# assayMethodText: EGFR binders on small-molecule microarrays, primary screen, biochemical, small-molecule microarray, 635 nm fluorescence (AID 1104);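 also: score merges 667 nm emission intensity with spot signal to noise over triplicate slides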
# appliedConditions: EGFR binding, higher = more signal
Catalogue of composite z-score values

COC(=O)c1nc2oc1CC[C@@H](CO)NC(=O)N(C)Cc1cnnn1C[C@H](Cc1ccccc1)NC2=O -0.913

Req: Note composite z-score for the compound shown: CC(C)[Si](C#C[Si](C(C)C)(C(C)C)C(C)C)(O[C@H](C)c1cn([C@H](CO)Cc2ccccc2)nn1)C(C)C
Resp: 0.0255

Req: Note composite z-score for the compound shown: C=C(C(=O)CC[C@@H](OC(C)=O)c1ccc(CO)o1)C(C)C
Resp: -0.289

Req: Note composite z-score for the compound shown: Cc1ccc(S[C@]2(C(=O)O)CC(=O)N(Cc3cc(C(F)(F)F)cc(C(F)(F)F)c3)[C@@H]2c2ccc(CO)cc2)cc1
Resp: -1.89

Req: Note composite z-score for the compound shown: COc1ccc([Si](C)(C)[C@H]2[C@H](CCO)O[C@@]3(C(=O)N(Cc4cccc(N5C(=O)COc6ccccc65)c4)c4ccccc43)[C@@H]2C)cc1
Resp: -0.686

Req: Note composite z-score for the compound shown: Cc1ccc(S[C@]2(C(=O)O)CC(=O)N(Cc3ccccc3Cl)[C@@H]2c2ccc(CO)cc2I)cc1
Resp: 0.0365

Req: Note composite z-score for the compound shown: COCCOC(=O)N1C(=O)[C@@]2(c3cc(C#CCNC(N)=O)ccc31)[C@H](C(=O)N1CCc3cc(OC)c(OC)cc3C1)[C@H]1C(=O)O[C@H](c3ccccc3)[C@H](c3ccccc3)N1[C@@H]2c1ccccc1OCCO
Resp: 0.873

----------
# systemUnderTest: Luciferin 4-monooxygenase (Photinus pyralis) (UniProt P08659)
# Sequence (P08659 whole entry, looked up): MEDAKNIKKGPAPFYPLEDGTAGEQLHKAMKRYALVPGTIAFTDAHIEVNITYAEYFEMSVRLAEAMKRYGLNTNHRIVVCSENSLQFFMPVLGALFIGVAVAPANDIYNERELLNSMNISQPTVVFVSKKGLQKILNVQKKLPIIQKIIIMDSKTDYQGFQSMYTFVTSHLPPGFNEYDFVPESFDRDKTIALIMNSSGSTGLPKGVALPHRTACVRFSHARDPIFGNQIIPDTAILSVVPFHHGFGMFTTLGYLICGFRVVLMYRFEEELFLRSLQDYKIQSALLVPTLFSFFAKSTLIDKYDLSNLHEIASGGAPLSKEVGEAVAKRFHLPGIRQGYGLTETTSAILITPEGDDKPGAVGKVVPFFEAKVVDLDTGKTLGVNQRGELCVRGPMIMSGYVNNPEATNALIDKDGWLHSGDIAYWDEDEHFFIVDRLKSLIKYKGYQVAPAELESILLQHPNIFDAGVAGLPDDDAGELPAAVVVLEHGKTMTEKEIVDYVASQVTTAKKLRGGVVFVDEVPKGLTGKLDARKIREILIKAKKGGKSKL
# assayMethodText: firefly luciferase enzyme inhibitors, primary screen, biochemical, luminescence, purified enzyme, 2006 set (AID 1141);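 also: cell-free assay with purified firefly luciferase at 100 ng per well in PBS; test concentration not given here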
# appliedConditions: SteadyGlo luminescence, 30 min, higher = more signal, called active from +8 up or from −8 down
z-score below -1 gives N; z-score at or above it gives Y.

Record excerpt, results attached:
molecule	group
CN(C)C(=O)[C@@]1(CCS(=O)(=O)c2ccccc2)N=C(c2ccc(OCCCO)cc2)O[C@H]1c1ccccc1	Y
COC(=O)Cn1c(C(=O)N(C)C)cc2c1C[C@H]1CN(C(=O)c3ccccc3)[C@@](Cc3ccc(F)cc3)(C(=O)OC)[C@@H]21	Y
C=C(C)[C@@H]1CC=C(C(O)C2C=CC3C(=O)N(c4ccccc4)C(=O)C3N2Nc2ccccc2F)CC1 (some centres undefined)	Y

Req: I'd appreciate it if you could say whether CC[C@H]1C2=C3C(CC[C@H]4C(OCc5ccc(F)cc5C(F)(F)F)OC[C@](C)([C@@H]34)N(C(=O)OC(C)(C)C)C2)C(COC)C1COC (some centres undefined) has z-score at least equal to -1.
Resp: Y

Req: I'd appreciate it if you could say whether COCCOC(=O)N1C(=O)[C@@]2(c3cc(C#CC4=CCCCC4)ccc31)[C@H](C(=O)N1CCCCCCC1)[C@H]1C(=O)O[C@H](c3ccccc3)[C@H](c3ccccc3)N1[C@@H]2c1ccc(O)cc1 has z-score at least equal to -1.
Resp: N

Req: I'd appreciate it if you could say whether COCCOC(=O)N1C(=O)[C@@]2(c3cc(C#Cc4ccc(OC)cc4)ccc31)[C@H](c1ccccc1OCCO)N1[C@H](c3ccccc3)[C@H](c3ccccc3)OC(=O)[C@H]1[C@@H]2C(=O)N1CCCCCCC1 has z-score at least equal to -1.
Resp: Y

Req: I'd appreciate it if you could say whether CC(CO)N1C(=O)[C@@H]2[C@H]3C(=O)OCC=C[C@H]3OC23C=CCN(Cc2ccccc2)C(=O)[C@@H]13 (some centres undefined) has z-score at least equal to -1.
Resp: N

Req: I'd appreciate it if you could say whether C=CCC(OC(C)=O)[C@@H]1[C@@H](N(Cc2ccc(-c3cccc(C(F)(F)F)c3)o2)C(=O)c2ccc(-c3ccccc3)cc2)c2cc(OCCCO)ccc2N1C(=O)c1ccc2ccccc2n1 (some centres undefined) has z-score at least equal to -1.
Resp: Y

Req: I'd appreciate it if you could say whether CCCC[C@@H]1C[C@H]1[C@@H](NC(=O)c1ccccc1)c1ccc(C(F)(F)F)cc1 has z-score at least equal to -1.
Resp: Y

Req: I'd appreciate it if you could say whether CCC(CC)C(O)C1C=CC2C(=O)N(c3ccccc3)C(=O)C2N1Nc1ccc(C(C)C)cc1 (centres undefined) has z-score at least equal to -1.
Resp: N

Req: I'd appreciate it if you could say whether O=C1C[C@@](C(=O)NCCN2CCOCC2)(c2ccc([N+](=O)[O-])cc2)[C@@H](c2ccc(CO)cc2I)N1C1CCCCC1 has z-score at least equal to -1.
Resp: Y

Req: I'd appreciate it if you could say whether COc1ccc(-c2nc(-c3ccccc3)c3c(c2C)CO[Si]3(C(C)C)C(C)C)cn1 has z-score at least equal to -1.
Resp: Y
